These data points were gathered from patent US20230087351A1.

MEASURED_METRIC: melting point

COMPOUND: C=CC(C)C1(C(=O)OC)C(=O)c2c(OC)cccc2N1C (stereo not shown)
melting point: 89 to 91 °C

q: Determine its reported melting point: C=CCC1(C(=O)OC)C(=O)c2cc(OC)ccc2N1C (stereo not shown)
a: 99 to 101 °C

q: Determine its reported melting point: C=CCC1(C(=O)OC)C(=O)c2c(OC)cccc2N1C (stereo not shown)
a: 125 to 127 °C

q: Determine its reported melting point: C=CC(C)(C)C1(C(=O)OC)C(=O)c2c(OC)cccc2N1C (stereo not shown)
a: 86 to 88 °C

q: Determine its reported melting point: C=CCC1(C(=O)OC)C(=O)c2ccccc2N1C (stereo not shown)
a: 90 to 93 °C

q: Determine its reported melting point: C=CCC1(C(=O)OC)C(=O)c2c(ccc3ccccc23)N1C (stereo not shown)
a: 144 to 147 °C

q: Determine its reported melting point: C=CCC1(C(=O)OC)C(=O)c2c(C)cccc2N1C (stereo not shown)
a: 98 to 100 °C
